Assay: surface tension of aqueous solutions (du Nouy tensiometer)
Format: physicochemical
Conditions: 500 ppm (0.05% solids) in deionized water, diluted from 10% solids in water/isopropyl alcohol
Parameter Surface tension (dynes/cm) at 500 ppm: see the listing below.

MOLECULE	UNIT_SPEC	Surface tension (dynes/cm) at 500 ppm
CCN(CCSC(CC(=O)O)C(=O)O)S(=O)(=O)C(F)(F)C(F)(F)C(F)(F)C(F)(F)C(F)(F)C(F)(F)C(F)(F)C(F)(F)F (stereo not shown)	dynes/cm	19.3
CCN(CCC(=O)NCCC[N+](C)(C)CCCS(=O)(=O)[O-])S(=O)(=O)C(F)(F)C(F)(F)C(F)(F)C(F)(F)C(F)(F)C(F)(F)C(F)(F)C(F)(F)F	dynes/cm	18.3
CC(C)(CS(=O)(=O)O)NC(=O)CCN1CCN(S(=O)(=O)C(F)(F)C(F)(F)C(F)(F)C(F)(F)C(F)(F)C(F)(F)C(F)(F)C(F)(F)F)CC1	dynes/cm	18.5
CCN(CCC(=O)NCCC[N+](C)(C)CC)S(=O)(=O)C(F)(F)C(F)(F)C(F)(F)C(F)(F)C(F)(F)C(F)(F)C(F)(F)C(F)(F)F	dynes/cm	18.5
CCN(CCC(=O)O)S(=O)(=O)C(F)(F)C(F)(F)C(F)(F)C(F)(F)C(F)(F)C(F)(F)C(F)(F)C(F)(F)F [Comparative Example C6]	dynes/cm	17.5
CCN(CCC(=O)O)S(=O)(=O)C(F)(F)C(F)(F)C(F)(F)C(F)(F)C(F)(F)C(F)(F)C(F)(F)C(F)(F)F [Comparative Example C5]	dynes/cm	20.7
CCN(CCC(=O)O)S(=O)(=O)C(F)(F)C(F)(F)C(F)(F)C(F)(F)C(F)(F)C(F)(F)C(F)(F)C(F)(F)F [Comparative Example C7]	dynes/cm	17.2
C[N+](C)(CCCNS(=O)(=O)C(F)(F)C(F)(F)C(F)(F)C(F)(F)C(F)(F)C(F)(F)F)CC(=O)[O-]	dynes/cm	19.4
CCN(CC(=O)O)S(=O)(=O)C(F)(F)C(F)(F)C(F)(F)C(F)(F)C(F)(F)C(F)(F)C(F)(F)C(F)(F)F	dynes/cm	16.4
O=C(O)CCNCCNS(=O)(=O)C(F)(F)C(F)(F)C(F)(F)C(F)(F)C(F)(F)C(F)(F)C(F)(F)C(F)(F)F	dynes/cm	16.5
CC(C)(CS(=O)(=O)O)NC(=O)CCNCCC[Si](C)(C)O[Si](C)(C)CCCNS(=O)(=O)C(F)(F)C(F)(F)C(F)(F)C(F)(F)F	dynes/cm	20.1
CC(C)(CS(=O)(=O)O)NC(=O)CCNCCNS(=O)(=O)C(F)(F)C(F)(F)C(F)(F)C(F)(F)C(F)(F)C(F)(F)C(F)(F)C(F)(F)F	dynes/cm	17.1
CC[N+](C)(CC)CCNS(=O)(=O)C(F)(F)C(F)(F)C(F)(F)C(F)(F)C(F)(F)C(F)(F)C(F)(F)C(F)(F)F	dynes/cm	17.5

* * *

Experiment: surface tension of aqueous solutions (du Nouy tensiometer)
Format: physicochemical
Conditions: 100 ppm (0.01% solids) in deionized water, diluted from 10% solids in water/isopropyl alcohol
Parameter Surface tension (dynes/cm) at 100 ppm: see the listing below.

SMILES	UNIT_SPEC	Surface tension (dynes/cm) at 100 ppm
CC[N+](C)(CC)CCNS(=O)(=O)C(F)(F)C(F)(F)C(F)(F)C(F)(F)C(F)(F)C(F)(F)C(F)(F)C(F)(F)F	dynes/cm	18.1
C[N+](C)(CCCNS(=O)(=O)C(F)(F)C(F)(F)C(F)(F)C(F)(F)C(F)(F)C(F)(F)F)CC(=O)[O-]	dynes/cm	21.0
CCN(CCC(=O)NCCC[N+](C)(C)CC)S(=O)(=O)C(F)(F)C(F)(F)C(F)(F)C(F)(F)C(F)(F)C(F)(F)C(F)(F)C(F)(F)F	dynes/cm	20.5

Origin of values: patent US6201122A
